Where do these numbers come from? They come from patent US20210388087A1.

STUDY TARGET: T1, Human CD3eg linker (human)
T1 construct: single-chain construct; also called recombinant human CD3
T1 chain: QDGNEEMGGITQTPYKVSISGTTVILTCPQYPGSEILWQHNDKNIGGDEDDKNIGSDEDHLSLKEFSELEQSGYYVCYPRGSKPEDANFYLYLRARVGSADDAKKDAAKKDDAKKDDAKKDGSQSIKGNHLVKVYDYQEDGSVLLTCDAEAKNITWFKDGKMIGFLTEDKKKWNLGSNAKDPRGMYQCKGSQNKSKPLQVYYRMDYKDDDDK
ASSAY EXPLANATION: SPR, vs unmutated H183/L072
fold change of affinity overview
MEASUREMENT NAME: fold change of affinity (fold)

>  <BINDER>
dBBDu183H A100D/dBBDu072L (antibody, name in Kabat numbering, V domains shown) VH: QVQLVESGGGLVQPGRSLRLSCAASGFTFSNAWMHWVRQAPGKGLEWVAQIKDKGNAYAAYYAPSVKGRFTISRDDSKNSIYLQMNSLKTEDTAVYYCHYVHYASDSTVLPAFGVDAWGQGTTVTVSS VL: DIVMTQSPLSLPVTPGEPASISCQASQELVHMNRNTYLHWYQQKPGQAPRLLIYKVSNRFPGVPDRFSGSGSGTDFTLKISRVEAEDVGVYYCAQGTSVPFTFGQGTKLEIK

>  <UNIT TAG>
fold

>  <ENDPOINT VALUE>
0.5

$$$$
>  <BINDER>
dBBDu183H V100cT/dBBDu072L (antibody, name in Kabat numbering, V domains shown) VH: QVQLVESGGGLVQPGRSLRLSCAASGFTFSNAWMHWVRQAPGKGLEWVAQIKDKGNAYAAYYAPSVKGRFTISRDDSKNSIYLQMNSLKTEDTAVYYCHYVHYASASTTLPAFGVDAWGQGTTVTVSS VL: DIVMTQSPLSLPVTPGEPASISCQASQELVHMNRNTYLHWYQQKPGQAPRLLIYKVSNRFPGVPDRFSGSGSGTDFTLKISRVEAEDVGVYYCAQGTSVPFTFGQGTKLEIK

>  <UNIT TAG>
fold

>  <ENDPOINT VALUE>
1

$$$$
>  <BINDER>
dBBDu183H K64Q/dBBDu072L (antibody, name in Kabat numbering, V domains shown) VH: QVQLVESGGGLVQPGRSLRLSCAASGFTFSNAWMHWVRQAPGKGLEWVAQIKDKGNAYAAYYAPSVQGRFTISRDDSKNSIYLQMNSLKTEDTAVYYCHYVHYASASTVLPAFGVDAWGQGTTVTVSS VL: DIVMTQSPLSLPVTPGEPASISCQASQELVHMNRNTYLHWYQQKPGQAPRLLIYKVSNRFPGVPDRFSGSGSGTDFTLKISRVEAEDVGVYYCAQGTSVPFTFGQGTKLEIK

>  <UNIT TAG>
fold

>  <ENDPOINT VALUE>
1

$$$$
>  <BINDER>
dBBDu183H F100gH/dBBDu072L (antibody, name in Kabat numbering, V domains shown) VH: QVQLVESGGGLVQPGRSLRLSCAASGFTFSNAWMHWVRQAPGKGLEWVAQIKDKGNAYAAYYAPSVKGRFTISRDDSKNSIYLQMNSLKTEDTAVYYCHYVHYASASTVLPAHGVDAWGQGTTVTVSS VL: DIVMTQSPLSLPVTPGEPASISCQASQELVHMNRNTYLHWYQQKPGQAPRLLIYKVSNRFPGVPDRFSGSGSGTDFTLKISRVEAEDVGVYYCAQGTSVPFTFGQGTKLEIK

>  <UNIT TAG>
fold

>  <ENDPOINT VALUE>
1.8

$$$$
>  <BINDER>
dBBDu183H A102T/dBBDu072L (antibody, name in Kabat numbering, V domains shown) VH: QVQLVESGGGLVQPGRSLRLSCAASGFTFSNAWMHWVRQAPGKGLEWVAQIKDKGNAYAAYYAPSVKGRFTISRDDSKNSIYLQMNSLKTEDTAVYYCHYVHYASASTVLPAFGVDTWGQGTTVTVSS VL: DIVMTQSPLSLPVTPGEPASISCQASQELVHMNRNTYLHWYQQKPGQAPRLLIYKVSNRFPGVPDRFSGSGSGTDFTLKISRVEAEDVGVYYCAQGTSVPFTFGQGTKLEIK

>  <UNIT TAG>
fold

>  <ENDPOINT VALUE>
0.5

$$$$
